These measurements were taken from ChEMBL document CHEMBL2203277.

- System: Staphylococcus aureus
- Test Summary: Antibacterial activity against methicillin-sensitive Staphylococcus aureus ATCC 29213 by broth microdilution method
- Assay type: functional
Quantity: MIC (µg/mL)

INSERT INTO assay_data (smiles_entry, quantity, value_unit, result) VALUES
  ('CC[C@H]1OC(=O)[C@H](C)C(=O)[C@H](C)[C@@H](O[C@@H]2O[C@H](C)[C@@H](O)[C@H](N(C)C)[C@H]2O)[C@](C)(OC)C[C@@H](C)C(=O)[C@H](C)[C@@H]2OC(=O)O[C@]12C', 'MIC', 'µg/mL', 0.125),
  ('C=CCO[C@H]1[C@H](N(C)C)[C@@H](O)[C@H](O[C@@H]2[C@@H](C)C(=O)[C@@H](C)C(=O)O[C@H](CC)[C@@]3(C)OC(=O)O[C@H]3[C@@H](C)C(=O)[C@H](C)C[C@@]2(C)OC)O[C@@H]1C', 'MIC', 'µg/mL', 4),
  ('CC[C@H]1OC(=O)[C@H](C)[C@@H](O[C@H]2C[C@@](C)(OC)[C@@H](O)[C@H](C)O2)[C@H](C)[C@@H](O[C@@H]2O[C@H](C)C[C@H](N(C)C)[C@H]2O)[C@](C)(O)C[C@@H](C)C(=O)[C@H](C)[C@@H](O)[C@]1(C)O', 'MIC', 'µg/mL', 0.25),
  ('CC[C@H]1OC(=O)[C@H](C)[C@@H](O[C@H]2C[C@@](C)(OC)[C@@H](O)[C@H](C)O2)[C@H](C)[C@@H](O[C@@H]2O[C@H](C)C[C@H](N(C)C)[C@H]2O)[C@](C)(OC)C[C@@H](C)C(=O)[C@H](C)[C@@H](O)[C@]1(C)O', 'MIC', 'µg/mL', 0.25),
  ('CC[C@H]1OC(=O)[C@H](C)C(=O)[C@H](C)[C@@H](O[C@@H]2O[C@H](C)[C@@H](OCc3ccccc3)[C@H](N(C)C)[C@H]2O)[C@](C)(OC)C[C@@H](C)C(=O)[C@H](C)[C@@H]2OC(=O)O[C@]12C', 'MIC', 'µg/mL', 32),
  ('CC[C@H]1OC(=O)[C@H](C)C(=O)[C@H](C)[C@@H](O[C@@H]2O[C@H](C)C[C@H](N(C)C)[C@H]2O)[C@](C)(OC)C[C@@H](C)C(=O)[C@H](C)[C@H]2N(CCCCn3cnc(-c4cccnc4)c3)C(=O)O[C@]12C', 'MIC', 'µg/mL', 0.125);
